Reference source: patent US20250122183A1

- TEST TARGET: KAT6A Full length enzyme (Homo sapiens (Human), UniProt Q92794)
- Sequence (Q92794 other isoform, or with tags, fused parts or gaps): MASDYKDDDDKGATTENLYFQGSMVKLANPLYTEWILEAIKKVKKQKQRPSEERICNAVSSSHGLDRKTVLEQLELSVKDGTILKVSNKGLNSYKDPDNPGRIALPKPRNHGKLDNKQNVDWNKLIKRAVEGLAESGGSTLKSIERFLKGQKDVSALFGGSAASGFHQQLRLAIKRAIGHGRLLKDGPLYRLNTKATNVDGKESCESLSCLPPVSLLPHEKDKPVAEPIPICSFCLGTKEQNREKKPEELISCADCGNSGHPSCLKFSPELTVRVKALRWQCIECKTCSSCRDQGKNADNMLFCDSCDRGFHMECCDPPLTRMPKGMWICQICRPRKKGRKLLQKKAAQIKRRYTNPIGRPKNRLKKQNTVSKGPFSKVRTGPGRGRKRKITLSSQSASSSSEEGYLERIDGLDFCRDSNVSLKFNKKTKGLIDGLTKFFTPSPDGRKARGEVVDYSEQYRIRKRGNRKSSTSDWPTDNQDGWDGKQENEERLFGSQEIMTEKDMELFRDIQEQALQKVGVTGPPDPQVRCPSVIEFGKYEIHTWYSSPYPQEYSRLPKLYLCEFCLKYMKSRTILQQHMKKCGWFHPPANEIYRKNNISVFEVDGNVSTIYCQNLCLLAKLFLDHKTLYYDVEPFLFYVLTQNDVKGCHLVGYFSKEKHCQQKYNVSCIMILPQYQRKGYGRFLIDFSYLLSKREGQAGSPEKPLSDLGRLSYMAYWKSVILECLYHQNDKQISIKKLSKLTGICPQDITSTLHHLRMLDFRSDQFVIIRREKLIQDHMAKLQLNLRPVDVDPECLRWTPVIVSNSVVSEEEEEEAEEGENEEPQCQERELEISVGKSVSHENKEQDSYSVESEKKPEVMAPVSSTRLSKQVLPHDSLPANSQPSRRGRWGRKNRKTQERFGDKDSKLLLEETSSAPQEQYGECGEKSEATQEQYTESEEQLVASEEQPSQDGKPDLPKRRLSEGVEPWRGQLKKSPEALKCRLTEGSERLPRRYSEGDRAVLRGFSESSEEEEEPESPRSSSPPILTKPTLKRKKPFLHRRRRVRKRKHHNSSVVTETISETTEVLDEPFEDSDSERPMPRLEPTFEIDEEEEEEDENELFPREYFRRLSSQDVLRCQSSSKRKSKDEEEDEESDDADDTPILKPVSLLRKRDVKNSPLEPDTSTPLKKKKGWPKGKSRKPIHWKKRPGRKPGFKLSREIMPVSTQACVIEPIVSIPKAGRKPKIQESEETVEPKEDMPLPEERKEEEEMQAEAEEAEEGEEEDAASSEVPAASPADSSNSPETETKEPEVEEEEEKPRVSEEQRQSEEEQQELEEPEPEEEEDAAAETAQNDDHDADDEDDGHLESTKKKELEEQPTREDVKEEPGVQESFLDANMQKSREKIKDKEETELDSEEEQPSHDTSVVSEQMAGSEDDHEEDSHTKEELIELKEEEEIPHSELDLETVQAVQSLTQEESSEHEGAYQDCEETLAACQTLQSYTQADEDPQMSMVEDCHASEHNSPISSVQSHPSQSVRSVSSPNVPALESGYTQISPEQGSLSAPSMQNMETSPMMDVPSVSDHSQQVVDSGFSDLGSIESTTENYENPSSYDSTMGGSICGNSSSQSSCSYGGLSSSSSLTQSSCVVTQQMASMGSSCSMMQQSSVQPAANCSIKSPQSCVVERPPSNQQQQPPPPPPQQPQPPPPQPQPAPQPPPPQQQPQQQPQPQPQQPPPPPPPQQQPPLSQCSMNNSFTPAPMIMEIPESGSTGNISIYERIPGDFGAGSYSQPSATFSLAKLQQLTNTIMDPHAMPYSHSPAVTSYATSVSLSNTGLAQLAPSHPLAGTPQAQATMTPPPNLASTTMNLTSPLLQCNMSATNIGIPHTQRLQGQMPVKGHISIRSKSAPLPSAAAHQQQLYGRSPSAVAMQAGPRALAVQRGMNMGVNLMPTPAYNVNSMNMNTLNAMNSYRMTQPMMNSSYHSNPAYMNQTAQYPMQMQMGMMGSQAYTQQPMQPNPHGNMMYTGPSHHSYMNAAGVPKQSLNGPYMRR
- ASSAY COMMENT: KAT6A assay (SAMDI-MS acetylation of H3 1-21 peptide)
- Format: biochemical
- RUN PARAMETERS: Morrison equation fit; replicate number in parentheses; read-out: KAT6A Ki (nM) (replicate number)
Simple rule here: Ki less than 1 nM is fulfilled, otherwise not fulfilled.

{"columns": ["MOLECULE", "ANSWER LABEL"],
 "data": [
  ["COc1cc2c(NS(=O)(=O)c3c(OC)cc(-c4nccc(C(C)N(C)C)n4)cc3OC)noc2cc1Nc1cc(C2CC2)n[nH]1 (stereo not shown) [Example 227]", "fulfilled"],
  ["COc1cc(F)ccc1S(=O)(=O)Nc1noc2cc(Nc3cc(C4CC4)n[nH]3)c(F)c(OC)c12 [Example 97]", "not fulfilled"],
  ["COc1cc2c(NS(=O)(=O)c3c(OC)cccc3OC)noc2cc1Nc1nccc(C)n1 [Example 105]", "not fulfilled"],
  ["COc1cc2c(NS(=O)(=O)c3cc(C)c(C)cc3OC)noc2cc1Nc1cc[nH]n1 [Example 25]", "fulfilled"],
  ["COc1cc2c(NS(=O)(=O)c3c(OC)cc([C@@H]4CCCN4C)cc3OC)noc2cc1Nc1cc(C2CC2)n[nH]1 [Example 189]", "not fulfilled"],
  ["CCc1cc(Nc2cc3onc(NS(=O)(=O)c4c(OC)cc(-c5cccc(C)n5)cc4OC)c3cc2OC)[nH]n1 [Example 231]", "not fulfilled"],
  ["COc1cc2c(NS(=O)(=O)c3ccccc3OC)noc2cc1Nc1cc[nH]n1 [Example 22]", "fulfilled"]
]}
